# MEASUREMENT_NOTES: in vitro
# Assay type: cell-based
# PARTICULARS: African green monkey, CC50
Entries whose CC50 at 3 days is below 4 µM take Fulfilled; entries at or above 4 µM take Not fulfilled.

Some entries whose results are on file:
INSERT INTO measurements (molecule, qualitative_label) VALUES
  ('COc1cc(NC(C(=O)c2c[nH]c3c(C)cc(F)cc23)c2ccc(F)cc2OC)cc(S(C)(=O)=O)c1 (single isomer, unassigned) [Enantiomer 8A]', 'Not fulfilled'),
  ('COc1cc(NC(C(=O)c2c[nH]c3cc(F)c(F)cc23)c2ccc(F)cc2OC)cc(S(C)(=O)=O)c1 (single isomer, unassigned) [Enantiomer 7A]', 'Fulfilled');

# evaluate next
Input: Given the entry COc1cc(NC(C(=O)c2c[nH]c3c(F)cc(C)cc23)c2ccc(F)cc2OC)cc(S(C)(=O)=O)c1 (single isomer, unassigned) [Enantiomer 6A] , would its reported CC50 at 3 days be below 4 µM?
Output: Not fulfilled
